# testedOn: T1R1/T1R3 receptor (Felis catus)
# experimentalDetails: Example 6: activation of T1R1/T1R3 by transmembrane compounds, conducted as in Example 5
# Type: cell-based
# condition: alone in buffer; read-out: T1R1/T1R3 EC50 alone in buffer
pEC50: −log10 of the molar value.
propertyMeasured: pEC50

- compound: "Nc1ccccc1C(=O)NCCc1ccccc1 [2-amino-N-phenethylbenzamide]"
  propertyMeasured: "pEC50"
  reportedResult: 3.38
- compound: "O=C(NCCc1c[nH]c2ccccc12)c1cccnc1 [N-(2-(1H-indol-3-yl)ethyl)nicotinamide, N-(2-(1H-Indol-3-yl)ethyl)nicotinamide]"
  propertyMeasured: "pEC50"
  reportedResult: 3.82

Reference source: patent US20180168208A1
